# Substrate: pcPET (post-consumer)
# testDescription: Proxy for plastic degradation [Released monomer concentration (HPLC/LC-MS) (TPA+MHET+BHET)]
# conditionDescription: pH 9; 40 °C; 24 h
valueKind: Proxy for plastic degradation (µM)
Dear colleague, please return just the value in µM, with no unit written.

Below, each entry is followed by its recorded Proxy for plastic degradation result.
protein	valueUnits	Proxy for plastic degradation
unnamed (protein) MLSFLRSTGRPERRRASLPALLLFTAALVASGLTAAPAAQAADNPYQRGPDPTNASIEAATGPFAVGTQPIVGASGFGGGQIYYPTDTSQTYGAVVIVPGFISVWAQLNWLGPRLASQGFVVIGIETSVITDLPDPRGDQALAALDWATTRSPVASRIDRTRLAAAGWSMGGGGLRRAALQRPSLKAIVGMAPWNGERNWSAVTVPTLFFGGSSDAVASPNDHAKPFYNSITRAEKDYIELCNADHFFPTSANTTMAKYFISWLKRWVDNDTRYTQFLCPGPSTGLFAPVCASMNTCPF	µM	890
unnamed (protein) MLSFLRSTGRPERRRASLPALLLFTAALVASGLTAAPAAQAADNPYQRGPDPTNASIEAATGPFAVGTQPIVGASGFGGGQIYYPRDTSQTYGAVVIVPGFISVWAQLNWLGPRLASQGFVVIGIETSVITDLPDPRGDQALAALDWATTRSPVASRIDRTRLAAAGWSMGGGGLRRAALQRPSLKAIVGMAPWNGERNWSAVTVPTLFFGGSSDAVASPNDHAKPFYNSITRAEKDYIELRNADHFFPTSANTTMAKYFISWLKRWVDNDTRYTQFLCPGPSTGLFAPVSASMNTCPF	µM	485
unnamed (protein) MLSFLRSTGRPERRRASLPALLLFTAALVASGLTAAPAAQAADNPYQRGPDPTNASIEAATGPFAVGTQPIVGASGFGGGQIYYPTDTSQTYGAVVIVPGFISVWAQLNWLGPRLASQGFVVIGIETSVITDLPDPRGDQALAALDWATTRSPVRSRIDRTRLAAAGWSMGGGGLRRAALQRPSLKAIVGMAPWNGERNWSAVTVPTLFFGGSSDAVASPNDHAKPFYNSITRAEKDYIELRNADHFFPTSANTTMAKYFISWLKRWVDNDTRYTQFLCPGPSTGLFAPVSASMNTCPF	µM	870
unnamed (protein) MLSFLRSTGRPERRRASLPALLLFTAALVASGLTAAPAAQAADNPYQRGPDPTNASIEAATGPFAVGTQPIVGASGFGGGQIYYPTDTSQTYGAVVIVPGFISVWAQLNWLGPRLASQGFVVIGIETSTITDLPDPRGDQALAALDWATTRSPVASRIDRTRLAAAGWSMGGGGLRRAACQRPSLKAIVGMAPWNGEKNWSCVTVPTLFFGGSSDAVASPNDHAKPFYNSITRAEKDYIELCNADHFFPTSANTTMAKYFISWLKRWVDNDTRYTQFLCPGPSTGLFAPVCASMNTCPF	µM	1200
unnamed (protein) MLSFLRSTGRPERRRASLPALLLFTAALVASGLTAAPAAQAADNPYQRGPDPTNASIEAATGPFAVGTQPIVGASGFGGGQIYYPTDTSQTYGAVVIVPGFISVWAQLNWLGPRLASQGFVVIGIETSVITDLPDPRGDQALAALDWATTRSPVASAIDRTRLAAAGWSMGGGGLRRAALQRPSLKAIVGMAPWNGERNWSAVTVPTLFFGGSSDAVASPNDHAKPFYNSITRAEKDYIELRNADHFFPTSANTTMAKYFISWLKRWVDNDTRYTQFLCPGPSTGLFAPVSASMNTCPF	µM	225

Now look at this one.
Give the value of Proxy for plastic degradation reported for the following: unnamed (protein) MLSFLRSTGRPERRRASLPALLLFTAALVASGLTAAPAAQAADNPYQRGPDPTNASIEAATGPFAVGTQPIVGASGFGGGQIYYPTDTSQTYGAVVIVPGFISVWAQLNWLGPRLASQGFVVIGIETSVITDLPDPRGDQALAALDWATTRSPVASRIDRTRLAAAGWSMGGGGLRRAALQRPSLKAIVGMTPWNGERNWSAVTVPTLFFGGSSDAVASPNDHAKPFYNSITRAEKDYIELRNADHFFPTSANTTMAKYFISWLKRWVDNDTRYTQFLCPGPSTGLFAPVSASMNTCPF 495

Hello, the source for this data is the PETadex activity labels (doi:10.1038/s41467-023-40233-w), in case you need it.
